# Target of assay: Keap1 Kelch domain protein (Homo sapiens (Human))
# Test description: Fluorescence polarization (FP) assay
# Assay type: binding
# Applied conditions: I-c compounds; read-out: IC 50 (FP assay)
Readout type: IC50 (µM)

Compound	Recorded measurement
O=C(O)C(c1ccc(N(C(=O)O)S(=O)(=O)c2ccc(N3C(=O)c4ccccc4C3=O)cc2)c2ccccc12)S(=O)(=O)c1ccc(N2C(=O)c3ccccc3C2=O)cc1 (stereo not drawn)	0.082
O=C(O)C(c1ccc(N(C(=O)O)S(=O)(=O)c2ccc(-c3ccccc3)cc2)c2ccccc12)S(=O)(=O)c1ccc(-c2ccccc2)cc1 (stereo not drawn)	0.07
Cc1cccc(F)c1S(=O)(=O)N(C(=O)O)c1ccc(C(C(=O)O)S(=O)(=O)c2c(F)cccc2F)c2ccccc12 (stereo not drawn)	0.224
COc1ccc(S(=O)(=O)C(C(=O)O)c2ccc(N(C(=O)O)S(=O)(=O)c3ccc(OC)cc3Br)c3ccccc23)c(Br)c1 (stereo not drawn)	0.184
O=C(O)C(c1ccc(N(C(=O)O)S(=O)(=O)c2ccc(NC(=O)C(F)(F)F)cc2)c2ccccc12)S(=O)(=O)c1ccc(NC(=O)C(F)(F)F)cc1 (stereo not drawn)	0.126
CS(=O)(=O)Nc1ccc(S(=O)(=O)C(C(=O)O)c2ccc(N(C(=O)O)S(=O)(=O)c3ccc(NS(C)(=O)=O)cc3)c3ccccc23)cc1 (stereo not drawn)	0.194

* * *

# Target of assay: Keap1 Kelch domain protein (Homo sapiens (Human), UniProt Q14145)
# Sequence (Q14145 321-609): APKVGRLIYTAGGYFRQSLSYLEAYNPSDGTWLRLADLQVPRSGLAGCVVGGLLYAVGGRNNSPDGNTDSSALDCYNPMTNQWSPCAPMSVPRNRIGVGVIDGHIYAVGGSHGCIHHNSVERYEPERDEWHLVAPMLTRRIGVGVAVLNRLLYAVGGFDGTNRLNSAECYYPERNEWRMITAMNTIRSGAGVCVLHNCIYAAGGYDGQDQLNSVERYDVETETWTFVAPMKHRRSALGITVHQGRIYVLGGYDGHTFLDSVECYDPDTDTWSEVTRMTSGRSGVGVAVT
# Test description: Fluorescence polarization (FP) assay
# Assay type: binding
# Applied conditions: inhibitor 50 μM; I-c compounds
# Description: Fluorescence Polarization (FP) Assay for Determination of the Inhibitory Potency of Designed Analogs Fluorescence polarization assay was performed on a Wallac Victor 3V multi-label counter/plate reader (PerkinElmer, Shelton, CT) using 484 nm excitation and 535 nm emission filters for the fluorophore used in the binding experiment. […] The determination of FP is by measuring the parallel and perpendicular fluorescence intensity (F∥ and F⊥) with respect to the linearly polarized excitation light. […]
Listing of recorded % inh. FP assay 50 (μM) by entry.

Molecule	% inh. FP assay 50 (μM), %
CS(=O)(=O)Nc1ccc(S(=O)(=O)C(C(=O)O)c2ccc(N(C(=O)O)S(=O)(=O)c3ccc(NS(C)(=O)=O)cc3)c3ccccc23)cc1 (stereo not drawn)	91.2
Cc1cccc(F)c1S(=O)(=O)N(C(=O)O)c1ccc(C(C(=O)O)S(=O)(=O)c2c(F)cccc2F)c2ccccc12 (stereo not drawn)	101
O=C(O)C(c1ccc(N(C(=O)O)S(=O)(=O)c2ccc(-c3ccccc3)cc2)c2ccccc12)S(=O)(=O)c1ccc(-c2ccccc2)cc1 (stereo not drawn)	100.2
COc1ccc(S(=O)(=O)C(C(=O)O)c2ccc(N(C(=O)O)S(=O)(=O)c3ccc(OC)cc3Br)c3ccccc23)c(Br)c1 (stereo not drawn)	95.3
O=C(O)C(c1ccc(N(C(=O)O)S(=O)(=O)c2ccc(NC(=O)C(F)(F)F)cc2)c2ccccc12)S(=O)(=O)c1ccc(NC(=O)C(F)(F)F)cc1 (stereo not drawn)	100.6
O=C(O)C(c1ccc(N(C(=O)O)S(=O)(=O)c2ccc(N3C(=O)c4ccccc4C3=O)cc2)c2ccccc12)S(=O)(=O)c1ccc(N2C(=O)c3ccccc3C2=O)cc1 (stereo not drawn)	100.7

* * *

# Target of assay: Keap1 Kelch domain protein (Homo sapiens (Human), UniProt Q14145)
# Test description: Fluorescence polarization (FP) assay
# Assay type: binding
# Applied conditions: inhibitor 5 μM; I-c compounds
Listing of recorded % inh. FP assay 5 (μM) by entry.
Readout type: % inh. FP assay 5 (μM) (%)

Compound	Readout type	Recorded measurement
COc1ccc(S(=O)(=O)C(C(=O)O)c2ccc(N(C(=O)O)S(=O)(=O)c3ccc(OC)cc3Br)c3ccccc23)c(Br)c1 (stereo not drawn)	% inh. FP assay 5 (μM)	99.3
O=C(O)C(c1ccc(N(C(=O)O)S(=O)(=O)c2ccc(NC(=O)C(F)(F)F)cc2)c2ccccc12)S(=O)(=O)c1ccc(NC(=O)C(F)(F)F)cc1 (stereo not drawn)	% inh. FP assay 5 (μM)	92.1
CS(=O)(=O)Nc1ccc(S(=O)(=O)C(C(=O)O)c2ccc(N(C(=O)O)S(=O)(=O)c3ccc(NS(C)(=O)=O)cc3)c3ccccc23)cc1 (stereo not drawn)	% inh. FP assay 5 (μM)	85.0
O=C(O)C(c1ccc(N(C(=O)O)S(=O)(=O)c2ccc(-c3ccccc3)cc2)c2ccccc12)S(=O)(=O)c1ccc(-c2ccccc2)cc1 (stereo not drawn)	% inh. FP assay 5 (μM)	95.9
O=C(O)C(c1ccc(N(C(=O)O)S(=O)(=O)c2ccc(N3C(=O)c4ccccc4C3=O)cc2)c2ccccc12)S(=O)(=O)c1ccc(N2C(=O)c3ccccc3C2=O)cc1 (stereo not drawn)	% inh. FP assay 5 (μM)	96.0
Cc1cccc(F)c1S(=O)(=O)N(C(=O)O)c1ccc(C(C(=O)O)S(=O)(=O)c2c(F)cccc2F)c2ccccc12 (stereo not drawn)	% inh. FP assay 5 (μM)	101

* * *

# Target of assay: Keap1 Kelch domain protein (Homo sapiens (Human), UniProt Q14145)
# Test description: Fluorescence polarization (FP) assay
# Type: binding
# Applied conditions: inhibitor 0.5 μM; I-c compounds

Compound	Scale unit	% inh. FP assay 0.5 (μM)
CS(=O)(=O)Nc1ccc(S(=O)(=O)C(C(=O)O)c2ccc(N(C(=O)O)S(=O)(=O)c3ccc(NS(C)(=O)=O)cc3)c3ccccc23)cc1 (centres unmarked)	%	68.3
O=C(O)C(c1ccc(N(C(=O)O)S(=O)(=O)c2ccc(N3C(=O)c4ccccc4C3=O)cc2)c2ccccc12)S(=O)(=O)c1ccc(N2C(=O)c3ccccc3C2=O)cc1 (centres unmarked)	%	84.8
O=C(O)C(c1ccc(N(C(=O)O)S(=O)(=O)c2ccc(-c3ccccc3)cc2)c2ccccc12)S(=O)(=O)c1ccc(-c2ccccc2)cc1 (centres unmarked)	%	91.5
O=C(O)C(c1ccc(N(C(=O)O)S(=O)(=O)c2ccc(NC(=O)C(F)(F)F)cc2)c2ccccc12)S(=O)(=O)c1ccc(NC(=O)C(F)(F)F)cc1 (centres unmarked)	%	76.1
COc1ccc(S(=O)(=O)C(C(=O)O)c2ccc(N(C(=O)O)S(=O)(=O)c3ccc(OC)cc3Br)c3ccccc23)c(Br)c1 (centres unmarked)	%	88.2
